biological target: T1, human LILRB3 (human, UniProt O75022 24-631); assay: FACS, 293F-hLILRB3 cells
T1 construct: whole, on cells; also called hLILRB3
T1 sequence (O75022 24-631): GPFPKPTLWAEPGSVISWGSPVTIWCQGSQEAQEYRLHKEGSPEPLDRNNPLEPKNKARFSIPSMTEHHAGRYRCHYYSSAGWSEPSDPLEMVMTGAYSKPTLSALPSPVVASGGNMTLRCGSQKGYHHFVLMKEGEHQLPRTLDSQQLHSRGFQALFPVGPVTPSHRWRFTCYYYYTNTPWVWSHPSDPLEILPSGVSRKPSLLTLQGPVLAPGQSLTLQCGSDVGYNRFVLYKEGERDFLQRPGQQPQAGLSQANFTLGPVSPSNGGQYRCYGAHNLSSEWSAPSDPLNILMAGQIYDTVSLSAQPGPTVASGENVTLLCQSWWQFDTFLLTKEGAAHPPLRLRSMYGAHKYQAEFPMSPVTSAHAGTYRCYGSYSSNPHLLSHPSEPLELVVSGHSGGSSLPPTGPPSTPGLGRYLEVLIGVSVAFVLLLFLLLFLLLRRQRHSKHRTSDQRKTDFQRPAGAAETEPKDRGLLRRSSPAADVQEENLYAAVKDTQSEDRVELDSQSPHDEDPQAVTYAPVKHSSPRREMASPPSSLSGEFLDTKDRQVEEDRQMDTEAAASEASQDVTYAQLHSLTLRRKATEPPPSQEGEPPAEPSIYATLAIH
observation-type: log10 MFI (log10 of the value in MFI)
Remember, log10 of MFI, in MFI.

log10 MFI in this record for 2-H8-C9-F7-E2 (antibody, V domains shown, mouse monoclonal hybridoma antibody) VH: EVQLQQSGAELVKPGASVKLSCKASGYTFTNYWMHWVKQRPGQGLEWIGEINPSNGRTNYNEKFKSKATLTVDKSSSTAYMQLSSLTSEDSAVYYCARGSLTTVVPFDYWGQGTTLTVSS VL: DIQMTQTPSSLSASLGGKVTITCKASQDINNYIAWYQHKPGKGPRLLIHYTSTLQPGIPSRFSGSGSGRDYSFSISNLEPEDIATYFCLQYDILLTFGGGTKLEK : 1.43

log10 MFI in this record for 27-F11-E10-G10 (antibody, V domains shown, mouse monoclonal hybridoma antibody) VH: EVQLVESGGGLVQPGGSRKLSCAASGFTFSSFGMHWVRQAPEKGLEWVAYISSGSSTIYYADTVKGRFSISRDNPKNTLFLQMTSLRSEDTAMFYCARSTGTGAMDYWGQGTSVTVSS VL: DIQMTQTTSSLSASLGDRVTISCRASQDISNYLNWYQQKPDGTVKLLIYYTSRLHSGVPSRFSGSGSGTDYSLTISNLEQEDIATYFCQQGNTLPWTFGGGTKLELK : 1.40

log10 MFI in this record for 7-B4-C1-C9 (antibody, V domains shown, mouse monoclonal hybridoma antibody) VH: EVQLQQSGTELVKPGASVKLSCKASGYTFTNYWMHWVKQRPGQGLEWIGEINPSNGRTNYNEKFKTKATLTVDKSSSTAYMQLSSLTSEDSAVYYCARSTYYGYDWYFDVWGAGTTVTVSS VL: DIVLTQSPSSMYASLGERVTITCKASQDINSYLSWFQQKPGKSPKTLIYRANRLLDGVPSRFSGGGSGQDYSLTISSLEHEDMGIYYCLQCDEFPHTFGGGTKLEIK : 1.42

Parameter requested: log10 MFI. Apply to each item below.
1. 27-G5-E9-B8 (antibody, V domains shown, mouse monoclonal hybridoma antibody) VH: EVQLVESGGGLVQPGGSRKLSCAASGFTFSSFGMHWVRQAPEKGLEWVAYISSGSSTIYYADTVKGRFTISRDNPKNTLFLQMTSLRSEDTAMYYCARSTGTGAMDYWGQGTSVTVSS VL: DIQMTQTTSSLSASLGDSVTFSCRASQDISNYLNWYQQKPDGTVKLLISYTSRLHSGVPSRFSGSGSGTDYSLTISNLEQEDIATYFCQQGNALPWTFGGGTKLEIK
2. 44-F10-B6-D4 (antibody, V domains shown, mouse monoclonal hybridoma antibody) VH: EVHLVESGGGLVKPGGSLKLSCAASGFTFSSYAMSWVRQTPEKRLEWVATISSGGSYIYYPDSVKGRFTISRDNAKNTLYLQMSSLRSEDTAMYYCARQDWDGGDYYAMDYWGQGTSVTVSS VL: DIVMTQSPSSLAVSAGEKVTMSCKSSQSVLYSSNQKNFLAWYQQKPGQSPKLLIYWASTRESGVPDRFTGSGSGTDFTLTISSVQAEDLAVYYCHQYLSSLTFGAGTKLELK
3. 42-C8-A12-F3-D11 (antibody, V domains shown, mouse monoclonal hybridoma antibody) VH: EVHLVESGGDLVKPGGSLKLSCAASGFTFSSHGMSWVRQTPDKRLEWVATISSGGIYTYHPDSVKGRFSISRDNAKKTLYLQMSSLKSEDTGIYYCTRGQVGNWYFDVWGAGTTVTVSS VL: DIVITQSPAIMSASPGEKVTINCSASSSVSYMHWFQQTPGTSPKLWIYSTSNLASGVPARFSGSGSGTFYSLTISRMEAEDAATYYCQQRSSYPLTFGAGTKLELK
4. 26-H9-B9-B7 (antibody, V domains shown, mouse monoclonal hybridoma antibody) VH: EVQRVESGGGLVQPGGSRKLSCAASGFTFSSFGMHWVRQAPEKGLEWVAYISSGSSTIYYADTVKGRFTISRDNPKNTLFLQMTSLRSEDTAMYYCARSDGKGAMDYWGQGTSVTVSS VL: DIVMTQSTSSLSASLGDRVTISCRASQDISNYLNWYQQKPDGTVKLLIYYTSRLHSGVPSRFSGSGSGTDYSLTISNLEQEDIATYFCQQGNTLPWTFGGGTKLEIK
5. 2-H1-D7-E5-D5 (antibody, V domains shown, mouse monoclonal hybridoma antibody) VH: EVHLVESGGGLVQPGGSRKLSCAASGFTFSSFGMHWVRQPPEKGLEWVAYISSGSSSIYYADTVKGRFTISRDNPKNTLFLQMTSLRSEDTAMYYCARGTGTGAMDYWGQGTSVTVSS VL: DIQMTQTTSSLSASLGDRVTISCRTSQDISNYLNWYQQKPDGTVKLLIYYTSKLHSGVPSRFSGSGSGTDYSLTISNLDQEDIATYFCQQGNTLPWTFGGGTKLEIK

**Result**
[1.37, 1.50, 2.78, 1.37, 1.36]

Parameter requested: log10 MFI. Apply to each item below.
1. 25-E7-A10-H6 (antibody, V domains shown, mouse monoclonal hybridoma antibody) VH: EVQLVESGGGLVQPGGSRKLSCAASGFTFSTFGMHWVRQAPEKGLEWVAYISSGSSTIYYADTVKGRFTISRDNPKNTLFLQMTSLRSEDTAMYYCARSTGTGAMDYWGQGTSVTVSS VL: DIQMTQTTSSLSASLGDRVTISCRASQDISKYLNWYQQKPDGTVKLLIYYTSRLHSGVPSRFSGSGSGTDYSLTISNLEQEDIATYFCQQGNTLPWTFGGGTKLEIK
2. 10-H9-E3-G3 (antibody, V domains shown, mouse monoclonal hybridoma antibody) VH: EVQRVESGGGLVQPGGSRKLSCAASGFTFSSFGMHWVRQAPEKGLEWVAYISSGSSAMYYADTVKGRFTISRDNPKNTLFLQMTSLRSEDTAMYYCARSDGKGAMDYWGQGTSVTVSS VL: DIQMTQTTSSLSASLGDRVTISCRASQDISNYLNWYQQKPDGTVKLLVYYTSRLHSGVPSRFSGSGSGTDYSLTISNLEQEDIATYFCQQGNTLPWTFGGGTKLEIK

**Result**
[1.36, 1.36]

log10 MFI in this record for 48-E11-H7-B5 (antibody, V domains shown, mouse monoclonal hybridoma antibody) VH: EVQLVESGGGLVKPGGSLKLSCAASGFTFSSYAMSWVRQTPEKRLEWVASITIGDDTYYPDSVKGRFTISRDHAKNILYLQVSSLRSEDTAMYSCARGVNSYGSSYRYFDVWGAGTTVTVSS VL: DIVMTQSHKFMSTSVGDRVSITCKASQDVSTAVAWYQQKPGQSPKLLIYWASTRHTGVPDRFTGSGSGTDYTLTISSVQAEDLALYYCQQHYSIPFTFGAGTKLEK : 1.43
